Target protein (sequence): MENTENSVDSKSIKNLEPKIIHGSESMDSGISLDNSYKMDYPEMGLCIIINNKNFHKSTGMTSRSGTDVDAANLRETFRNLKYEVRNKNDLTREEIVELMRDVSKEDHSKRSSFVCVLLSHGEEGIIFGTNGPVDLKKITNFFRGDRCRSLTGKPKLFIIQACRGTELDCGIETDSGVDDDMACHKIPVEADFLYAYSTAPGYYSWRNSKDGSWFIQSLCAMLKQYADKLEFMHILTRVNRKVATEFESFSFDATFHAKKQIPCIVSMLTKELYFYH
pIC50: −log10 of the molar value.
Response key: Condition met means pIC50 >= 7; Condition not met means pIC50 < 7.

- Smiles Entry: "CC(C)[C@H](NC(=O)Cc1ccccc1)C(=O)N[C@@H](CC(=O)O)C(=O)CSCc1ccccc1"
  Assigned Class: "Condition not met"
- Smiles Entry: "CCOc1ccc(OCC(=O)OC)cc1CC(=O)N[C@H](C(=O)N[C@@H](CC(=O)O)C(=O)CSCc1c(F)cccc1Cl)C(C)C"
  Assigned Class: "Condition met"

====

Some compounds, each annotated with its measured IC50.
Target sequence: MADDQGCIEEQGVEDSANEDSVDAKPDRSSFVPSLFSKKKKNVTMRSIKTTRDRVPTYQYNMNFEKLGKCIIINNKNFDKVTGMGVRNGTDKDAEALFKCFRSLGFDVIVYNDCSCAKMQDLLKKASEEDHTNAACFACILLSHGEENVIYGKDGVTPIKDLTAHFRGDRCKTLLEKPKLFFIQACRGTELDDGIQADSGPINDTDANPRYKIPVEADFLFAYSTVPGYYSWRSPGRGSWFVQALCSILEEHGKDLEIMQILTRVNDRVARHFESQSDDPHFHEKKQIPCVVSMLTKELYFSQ

- Smiles Entry: "CC(C)[C@H](NC(=O)c1cc2cc(F)ccc2[nH]1)C(=O)N[C@@H](CC(=O)O)C(=O)CSCc1ccccc1"
  Reading Qualifier: "="
  IC50 [nM]: 1400
- Smiles Entry: "COc1ccc(OC)c(CC(=O)N[C@H](C(=O)N[C@@H](CC(=O)O)C(=O)CSCC2CCCCC2)C(C)C)c1"
  Reading Qualifier: ">"
  IC50 [nM]: 10000
- Smiles Entry: "CCOc1ccc(/C=C/C(=O)OC)cc1CC(=O)N[C@H](C(=O)N[C@@H](CC(=O)O)C(=O)CSCc1c(F)cccc1Cl)C(C)C"
  Reading Qualifier: "="
  IC50 [nM]: 24
- Smiles Entry: "COc1ccc(C(C)=O)cc1CC(=O)N[C@H](C(=O)N[C@@H](CC(=O)O)C(=O)CSCc1ccccc1)C(C)C"
  Reading Qualifier: "="
  IC50 [nM]: 130
- Smiles Entry: "CCOc1ccc(OCC(=O)OC)cc1CC(=O)N[C@H](C(=O)N[C@@H](CC(=O)O)C(=O)CSCc1c(F)cccc1Cl)C(C)C"
  Reading Qualifier: "="
  IC50 [nM]: 1700
- Smiles Entry: "CC(C)[C@H](NC(=O)Cc1ccccc1)C(=O)N[C@@H](CC(=O)O)C(=O)CSCc1ccccc1"
  Reading Qualifier: "="
  IC50 [nM]: 8400
- Smiles Entry: "COc1ccccc1CC(=O)N[C@H](C(=O)N[C@@H](CC(=O)O)C(=O)CSCc1ccccc1)C(C)C"
  Reading Qualifier: "="
  IC50 [nM]: 2700
- Smiles Entry: "COc1cccc(CC(=O)N[C@H](C(=O)N[C@@H](CC(=O)O)C(=O)CSCc2ccccc2)C(C)C)c1"
  Reading Qualifier: "="
  IC50 [nM]: 3100
- Smiles Entry: "COc1ccc(S(C)(=O)=O)cc1CC(=O)N[C@H](C(=O)N[C@@H](CC(=O)O)C(=O)CSCc1c(F)cccc1Cl)C(C)C"
  Reading Qualifier: "="
  IC50 [nM]: 120
- Smiles Entry: "CC(C)[C@H](NC(=O)c1cc(Br)cc(Br)c1)C(=O)N[C@@H](CC(=O)O)C(=O)CSCc1ccccc1"
  Reading Qualifier: "="
  IC50 [nM]: 1500

====

Biological target: Caspase-1 (Homo sapiens)
Sequence (P29466 whole entry): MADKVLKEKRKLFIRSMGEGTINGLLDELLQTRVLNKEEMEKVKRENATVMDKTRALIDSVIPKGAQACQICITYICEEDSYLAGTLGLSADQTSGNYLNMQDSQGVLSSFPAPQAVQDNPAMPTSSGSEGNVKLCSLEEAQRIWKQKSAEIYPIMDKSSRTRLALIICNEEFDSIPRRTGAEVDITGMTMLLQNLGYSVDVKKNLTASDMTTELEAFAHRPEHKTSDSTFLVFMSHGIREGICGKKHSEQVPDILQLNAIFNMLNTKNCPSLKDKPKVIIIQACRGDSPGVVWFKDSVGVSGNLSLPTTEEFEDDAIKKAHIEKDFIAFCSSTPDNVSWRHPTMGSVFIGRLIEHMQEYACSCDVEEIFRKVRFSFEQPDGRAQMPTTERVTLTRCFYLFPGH
Assign labels as follows, please: criterion met for IC50 below 3 µM; criterion not met for IC50 equal to or exceeding 3 µM.

- Smiles Entry: "CC(C)[C@H](NC(=O)c1cc2cc(F)ccc2[nH]1)C(=O)N[C@@H](CC(=O)O)C(=O)CSCc1ccccc1"
  Assigned Class: "criterion met"
- Smiles Entry: "CC(C)[C@H](NC(=O)Cc1ccccc1)C(=O)N[C@@H](CC(=O)O)C(=O)CSCc1ccccc1"
  Assigned Class: "criterion not met"
- Smiles Entry: "COc1ccc(OC)c(CC(=O)N[C@H](C(=O)N[C@@H](CC(=O)O)C(=O)CSCc2ccccc2)C(C)C)c1"
  Assigned Class: "criterion not met"
- Smiles Entry: "COc1ccc(C(C)=O)cc1CC(=O)N[C@H](C(=O)N[C@@H](CC(=O)O)C(=O)CSCc1ccccc1)C(C)C"
  Assigned Class: "criterion not met"
- Smiles Entry: "COc1ccc(Br)cc1CC(=O)N[C@H](C(=O)N[C@@H](CC(=O)O)C(=O)CSCc1ccccc1)C(C)C"
  Assigned Class: "criterion not met"
- Smiles Entry: "CC(=O)N[C@@H](CC(=O)O)C(=O)N[C@@H](CCC(=O)O)C(=O)N[C@H](C(=O)N[C@H](C=O)CC(=O)O)C(C)C"
  Assigned Class: "criterion met"
- Smiles Entry: "COc1ccc(OC)c(CC(=O)N[C@H](C(=O)N[C@@H](CC(=O)O)C(=O)CSCC(C)C)C(C)C)c1"
  Assigned Class: "criterion met"

====

tested on: NT2; assay: Inhibitory activity against NT2 cells; assay type: functional, cell-based; conditions: Homo sapiens

- Smiles Entry: "CC(C)[C@H](NC(=O)[C@H](C)NC(=O)[C@H](CC(=O)O)NC(=O)c1ccccc1)C(=O)N[C@@H](CC(=O)O)C(=O)CCCc1ccccc1"
  Reading Qualifier: "="
  IC50 (µM): 14
- Smiles Entry: "COc1ccc(S(C)(=O)=O)cc1CC(=O)N[C@H](C(=O)N[C@@H](CC(=O)O)C(=O)CSCc1c(F)cccc1Cl)C(C)C"
  Reading Qualifier: "="
  IC50 (µM): 1
- Smiles Entry: "CCOc1ccc(/C=C/C(=O)OC)cc1CC(=O)N[C@H](C(=O)N[C@@H](CC(=O)O)C(=O)CSCc1c(F)cccc1Cl)C(C)C"
  Reading Qualifier: "="
  IC50 (µM): 0.6
- Smiles Entry: "CC(C)[C@H](NC(=O)c1cc2cc(F)ccc2[nH]1)C(=O)N[C@@H](CC(=O)O)C(=O)CSCc1ccccc1"
  Reading Qualifier: "="
  IC50 (µM): 55
- Smiles Entry: "CC(=O)N[C@@H](CC(=O)O)C(=O)N[C@@H](CCC(=O)O)C(=O)N[C@H](C(=O)N[C@H](C=O)CC(=O)O)C(C)C"
  Reading Qualifier: ">"
  IC50 (µM): 100
- Smiles Entry: "COc1ccc(Br)cc1CC(=O)N[C@H](C(=O)N[C@@H](CC(=O)O)C(=O)CSCc1ccccc1)C(C)C"
  Reading Qualifier: "="
  IC50 (µM): 9
- Smiles Entry: "CC(C)[C@H](NC(=O)c1cc(Br)cc(Br)c1)C(=O)N[C@@H](CC(=O)O)C(=O)CSCc1ccccc1"
  Reading Qualifier: "="
  IC50 (µM): 63
- Smiles Entry: "CCOc1ccc(OCC(=O)OC)cc1CC(=O)N[C@H](C(=O)N[C@@H](CC(=O)O)C(=O)CSCc1c(F)cccc1Cl)C(C)C"
  Reading Qualifier: "="
  IC50 (µM): 0.7
- Smiles Entry: "CCOc1ccc(OCC(=O)O)cc1CC(=O)N[C@H](C(=O)N[C@@H](CC(=O)O)C(=O)CSCc1c(F)cccc1Cl)C(C)C"
  Reading Qualifier: "="
  IC50 (µM): 5
- Smiles Entry: "COc1ccc(OC)c(CC(=O)N[C@H](C(=O)N[C@@H](CC(=O)O)C(=O)CSCc2c(F)cccc2Cl)C(C)C)c1"
  Reading Qualifier: "="
  IC50 (µM): 9
- Smiles Entry: "CCOc1ccc(OCC(=O)OC(C)C)cc1CC(=O)N[C@H](C(=O)N[C@@H](CC(=O)O)C(=O)CSCc1c(F)cccc1Cl)C(C)C"
  Reading Qualifier: "="
  IC50 (µM): 0.3
- Smiles Entry: "COc1ccc(OC)c(CC(=O)N[C@H](C(=O)N[C@@H](CC(=O)O)C(=O)CSCC2CCCCC2)C(C)C)c1"
  Reading Qualifier: "="
  IC50 (µM): 19
- Smiles Entry: "COc1cccc(CC(=O)N[C@H](C(=O)N[C@@H](CC(=O)O)C(=O)CSCc2ccccc2)C(C)C)c1"
  Reading Qualifier: "="
  IC50 (µM): 60
- Smiles Entry: "COc1ccc(OC)c(CC(=O)N[C@H](C(=O)N[C@@H](CC(=O)O)C(=O)CSCc2ccccc2)C(C)C)c1"
  Reading Qualifier: "="
  IC50 (µM): 10
- Smiles Entry: "COc1ccc(OC)c(CC(=O)N[C@H](C(=O)N[C@@H](CC(=O)O)C(=O)CSCC(C)C)C(C)C)c1"
  Reading Qualifier: "="
  IC50 (µM): 32
- Smiles Entry: "COc1ccc(C(C)=O)cc1CC(=O)N[C@H](C(=O)N[C@@H](CC(=O)O)C(=O)CSCc1ccccc1)C(C)C"
  Reading Qualifier: "="
  IC50 (µM): 2
